All figures here come from the supplement of paper PMC13380429.

Would you kindly list cell viability for each of these molecules?
# System: Vero E6
# assayText: cell viability relative to DMSO; higher = less toxic
# experimentalContext: 72 h; 10 nM
Where a name gives a salt, the structure may show the parent alone.
Give bare numbers, in %.

Some solved entries appear below for comparison.
[[record]]
molecule = "O=c1cc(-c2ccccc2)oc2cc(O)c(O)c(O)c12 [baicalein]"
subjectoftest = "Vero E6"
endpointname = "cell viability"
observedvalue = 98.3

[[record]]
molecule = "COc1ccc(-c2cc(=O)c3c(O)cc(O)cc3o2)cc1O [diosmetin]"
subjectoftest = "Vero E6"
endpointname = "cell viability"
observedvalue = 96.8

[[record]]
molecule = "Nc1nc(NC[C@H]2CC[C@H](CNS(=O)(=O)c3cccc4ccccc34)CC2)nc2ccccc12"
subjectoftest = "Vero E6"
endpointname = "cell viability"
observedvalue = 95.8

[[record]]
molecule = "COC(=O)Nc1nc2cc(Sc3ccccc3)ccc2[nH]1 [fenbendazole]"
subjectoftest = "Vero E6"
endpointname = "cell viability"
observedvalue = 108


Field: cell viability. Fill in for each record below.
1. O=C1CCc2ccc(OCCCCN3CCN(c4cccc(Cl)c4Cl)CC3)cc2N1 [aripiprazole]
2. O=C(NNc1ccccc1)c1ccncc1 [plurisin-1]
3. CC(=O)c1cc([N+](=O)[O-])c(Sc2cccc(Cl)c2Cl)s1 [P5091]
4. Cc1cc(CCCOc2c(C)cc(-c3noc(C(F)(F)F)n3)cc2C)on1 [pleconaril]

Result block:
1: 97.6; 2: 108; 3: 97.5; 4: 96.8

Field: cell viability. Fill in for each record below.
1. Nc1nc(OCC2CCCCC2)c2nc[nH]c2n1 [NU-2058]
2. O=C(O)c1ccccc1NCCc1ccccc1 [tromaril]
3. Cc1cc(C(N)=O)ccc1-n1c(CCC(=O)O)ccc1-c1ccc(-n2ccnc2)cc1 [N6022]
4. N#C/C(=C\c1ccc(O)c(O)c1)C(N)=O [tyrphostin-AG-99]

Result block:
[97.6, 99.5, 96.5, 98.6]

Field: cell viability. Fill in for each record below.
1. Cc1ccc(-c2csc(NC(=O)c3ccccc3)n2)c(C)c1 [INH1]
2. COc1ccc2cc(-c3cc(-c4cc(Cl)cc(Cl)c4)nn3[C@@H](C)c3ccc(C(=O)NCCC(=O)O)cc3)ccc2c1 [MK-0893]
3. CC(C)OC(=O)OCOP(=O)(CO[C@H](C)Cn1cnc2c(N)ncnc21)OCOC(=O)OC(C)C [tenofovir-disoproxil]
4. N=C1NC(=O)/C(=C/c2ccc(O)cc2)S1 [mirin]
5. Nc1nc2cc(-c3ccc4ncc(C(=O)N5CCOCC5)n4c3)ccc2o1 [MLN1117]
6. C1CCC(NC2CCCCC2)CC1 [dicyclohexylamine]
7. CC[C@H]1OC(=O)[C@H](C)[C@@H](O[C@H]2C[C@@](C)(OC)[C@@H](O)[C@H](C)O2)[C@H](C)[C@@H](O[C@@H]2O[C@H](C)C[C@H](N(C)C)[C@H]2O)[C@](C)(O)C[C@@H](C)CN(C)[C@H](C)[C@@H](O)[C@]1(C)O [azithromycin]

Result block:
1: 96.8; 2: 102; 3: 94.9; 4: 96.2; 5: 106; 6: 96.3; 7: 103

Field: cell viability. Fill in for each record below.
1. Cc1cc(C)c2c(N)c(C(=O)NCc3ccc(Cl)cc3)sc2n1
2. CN1CCN(c2ncc(-c3cc(Cl)cc(Cl)c3Cl)c(N)n2)CC1 [sipatrigine]
3. O=C(NC1CC1)c1cc(-c2cccs2)on1 [ISX-9]

Result block:
91.8
107
96.5

Field: cell viability. Fill in for each record below.
1. CNC(=O)c1cccc(NC(=O)N2CCC(Oc3ccccc3Cl)CC2)c1
2. Oc1ncnc2[nH]ncc12 [allopurinol]
3. CC(COc1ccccc1)N(CCCl)Cc1ccccc1 (stereo unspecified) [phenoxybenzamine]
4. Cc1cc2sc(NC(=O)Cc3ccccc3)nc2cc1Cl [LH846]

Result block:
[99.5, 104, 98.3, 99.2]

Field: cell viability. Fill in for each record below.
1. c1ccc(CCNc2nc(-c3ccccc3)cs2)cc1 [fanetizole]
2. COc1ccc(Cl)cc1[C@]1(F)C(=O)Nc2cc(C(F)(F)F)ccc21 [flindokalner]
3. Cc1cc2nc3c(=O)[nH]c(=O)nc-3n(C[C@H](O)[C@H](O)[C@H](O)CO)c2cc1C [riboflavin]
4. O=C1c2c(O)ccc(O)c2C(=O)c2c(NCCNCCO)ccc(NCCNCCO)c21 [mitoxantrone]
5. O=C1CC[C@@]2(O)[C@H]3Cc4ccc(O)c5c4[C@@]2(CCN3CC2CC2)[C@H]1O5 [NALTREXONE HYDROCHLORIDE]
6. CCNC(=O)[C@@H]1CCCN1C(=O)[C@H](CCCNC(=N)N)NC(=O)[C@H](CC(C)C)NC(=O)[C@@H](C)NC(=O)[C@H](Cc1ccc(O)cc1)NC(=O)[C@H](CO)NC(=O)[C@H](Cc1c[nH]c2ccccc12)NC(=O)[C@H](Cc1cnc[nH]1)NC(=O)[C@@H]1CCC(=O)N1 [alarelin]
7. CCNC(=O)CC[C@H](N)C(=O)O [L-theanine]

Result block:
1. 99.7
2. 96.1
3. 91.9
4. 96
5. 106
6. 106
7. 99

Field: cell viability. Fill in for each record below.
1. CC(C)[C@H](N)C(=O)OCCOCn1cnc2c(=O)nc(N)[nH]c21 [valaciclovir]
2. CC(C)(C)c1ccc(S(=O)(=O)/C=C/C#N)cc1 [BAY-11-7085]
3. Cc1[nH]c2ccc(Cl)cc2c1C1=CCNCC1

Result block:
[92, 95.9, 96.4]

----------
# Tested on: Calu-3
# assayText: cell viability relative to DMSO; higher = less toxic
# experimentalContext: 72 h; 10 nM
endpointName: cell viability (%)
One number for each entry, in %.

[[record]]
molecule = "CCN1CCN(c2ccc(C(C)(C)NC(=O)c3cc4[nH]c5ccccc5c(=O)c4cc3F)cn2)CC1"
observedvalue = 87.8

[[record]]
molecule = "c1ccc2c(c1)CCCC2C1=NCCN1 (configuration not stated) [tetrahydrozoline]"
observedvalue = 97.9


Field: cell viability. Fill in for each record below.
1. CC(C)n1nc(-c2cc3cc(O)ccc3[nH]2)c2c(N)ncnc21
2. CCCc1cc(C)[nH]c(=O)c1CNC(=O)c1cc(-c2ccc(N3CCN(C(C)C)CC3)nc2)cc2c1cnn2C(C)C
3. N[C@@H](Cn1ccc(=O)n(Cc2ccccc2C(=O)O)c1=O)C(=O)O
4. COc1ccc2cc(-c3cc(-c4cc(Cl)cc(Cl)c4)nn3[C@@H](C)c3ccc(C(=O)NCCC(=O)O)cc3)ccc2c1

Result block:
[94.2, 103, 94.8, 94.7]

----------
# Test system: A549-ACE2 infected with SARS-CoV-2
# assayText: morphology score (similarity to uninfected cells); higher = more like uninfected cells
# experimentalContext: 3 µM; 24 h
Decide by morphology score: equal to or exceeding 0.6 means 1, less means -1.

[[record]]
molecule = "c1cnc2c([O][Ga]([O]c3cccc4cccnc34)[O]c3cccc4cccnc34)cccc2c1 [gallium-triquinolin-8-olate]"
assignedcategory = 1

[[record]]
molecule = "CN1C2CCC1CC(OC(c1ccccc1)c1ccc(Cl)cc1)C2 (stereo unspecified) [3-CPMT]"
assignedcategory = 1

[[record]]
molecule = "CCC[C@@H]1CC2=CC(=O)CC[C@]2(C)[C@H]2CC[C@@]3(C)[C@@H](CC[C@@]3(O)CCC(=O)O)[C@H]12"
assignedcategory = -1

[[record]]
molecule = "CCN1CCN(c2ccc(C(C)(C)NC(=O)c3cc4[nH]c5ccccc5c(=O)c4cc3F)cn2)CC1"
assignedcategory = 1


For the next question, use this molecule.
Query block: Hello, I need to know if C[C@@H](O[C@H]1OCCN(Cc2nn[nH]c2CN(C)C)[C@H]1c1ccc(F)cc1)c1cc(C(F)(F)F)cc(C(F)(F)F)c1 has measured morphology score not below 0.6. Thanks!
Result block: -1

----------
# Test system: Caco-2
# assayText: drug sensitivity score (DSS) for viability; higher = more toxic; extreme values may be limits of the assay
# experimentalContext: 72 h
endpointName: drug sensitivity score
One number for each entry.

Field: drug sensitivity score. Fill in for each record below.
1. Oc1ncnc2[nH]ncc12 [allopurinol]
2. CC(=O)NC1=NN(C(C)=O)[C@](C)(c2ccccc2)S1 [K-858]
3. O=C(NC1CC1)c1cc(-c2cccs2)on1 [ISX-9]
4. CCCc1cc(C)[nH]c(=O)c1CNC(=O)c1cc(-c2ccc(N3CCN(C(C)C)CC3)nc2)cc2c1cnn2C(C)C [UNC1999]

Result block:
0
1.1
0.1
0.6

Field: drug sensitivity score. Fill in for each record below.
1. COCCN1CCC(C(=O)NO)(S(=O)(=O)c2ccc(Oc3ccc(OC(F)(F)F)cc3)cc2)CC1 [SD-2590]
2. CC(Cc1cccc(C(F)(F)F)c1)NCCOC(=O)c1ccccc1 (centres undefined) [benfluorex]

Result block:
[0, 0]
